Overview of reported growth across a group of molecules:
# Tested on: HL-60(TB) leukemia
# METHOD DESCRIPTION: NCI-60 one-dose screen, 48 h (100 = growth as untreated, 0 = no growth, -100 = all killed)
# CONDITION INFO: 10 µM unless noted
About 83,000 compounds went through this panel and 20% of them were active in at least one assay; those are over-represented in the sample as a whole.
// return numeric value only (unit: %, not printed)

MOLECULE	TARGET OF ASSAY	QUANTITY UNIT	MEASURED
COC(=O)C[C@](O)(CCCC(C)(C)O)C(=O)O[C@H]1C(OC)=C[C@@]23CCCN2CCc2cc4c(cc2[C@@H]13)OCO4	HL-60(TB) leukemia	%	-30.3

Record summary for `COc1ccc(NC(=O)Cn2c(/C=C/c3cccc(Br)c3)nc3ccccc3c2=O)cc1` : reported growth = 92.9

Record summary for `O=C(Nc1nc2ccc([N+](=O)[O-])cc2s1)Nc1ccc(Cl)cc1Cl` : reported growth = 50.1

Record summary for `CCn1c(SCC(=O)Nc2ccc(-c3nc4ccccc4[nH]3)cc2)nc2ccccc2c1=O` : reported growth = 0.454

Record summary for `C=CC[Se]C(=O)c1ccc(C(=O)[Se]CC=C)s1` : reported growth = -31.6

Record summary for CC1[C@H]2[C@H](C[C@H]3[C@@H]4CC=C5c6sc(Nc7cccc(Cl)n7)nc6CC[C@]5(C)[C@H]4CC[C@@]32C)O[C@]12CC[C@@H](C)CO2 (stereo partly drawn) : reported growth = 45.4

Record summary for `C#CCOc1ccc(/C=N/Nc2nc(-c3ccc(Cl)cc3)cs2)cc1OC` : reported growth = 20.1

Record summary for `N#Cc1c(-c2ccccc2Cl)cc(-c2c[nH]c3ccccc23)[nH]c1=O` : reported growth = 68.4

Record summary for `COc1ccc(/C(CSc2nnc(-c3c[nH]c4ccccc34)n2-c2ccccc2)=N/O)cc1` : reported growth = 3.87

Record summary for `O=C(N/N=C/c1ccoc1)c1[nH]c2ccc(Br)cc2c1-c1ccccc1` : reported growth = -27.3

Record summary for `Cc1ccc(NC(=O)N/N=C/c2c[nH]c3ccccc23)c(C)c1` : reported growth = 1.73
